meta.source: the supplement of paper PMC9170038

tested on: K4 kissing-loop RNA reporter; test: apparent KD of K4 kissing-loop reporter; higher = weaker reporter binding; details: Eterna round: R107; input ligand: tryptophan 2.4 mM;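 also: bound reporter read as fluorescence of individual clusters on recovered sequencing chips by microscopy, with normalized cluster intensities fitted with a binding model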
# apparent KD of K4 kissing-loop reporter >= 0.2 µM gives criterion met, anything below gives criterion not met

Prompt line: API: above_or_equal(metric=apparent KD of K4 kissing-loop reporter, cutoff=0.2 µM) for item AUUUAAUUAACUGAUACCAGACUUUAUGUAUUUAUUAAAACUAGUGAUGUUAGUUUAUCUGUCCCUUGGCAGCAGUUUCUACUUA [JR_Nu_ExcTheophyB_Sub021]
Response line: criterion not met

Prompt line: Please check the record GCUAUGGUAGGAAGGAGCGCUUAAUUACUAAUAAGAGUGAUGUUCGAUAGUAGGUAUUUGUAGCAGGUAGGUCGCCUACUAUAGC [KL-Arg B24] and state if its apparent KD of K4 kissing-loop reporter is at or above 0.2 µM.
Response line: criterion met

Prompt line: Can UUAUAUAUAUCAGAUACCAGCAUAAUGGAAACAAAUUAUGUUAUGAGUGAUGUUCAUGUAUGCCCUUGGCAGCUGGUAUGGGUUU [KL-XTheo-B19] be said to have apparent KD of K4 kissing-loop reporter at or above 0.2 µM?
Response line: criterion met

Prompt line: Does the sequence UGUACCGACUCAGGAUAUGUCGUCGAAAGACGAAAUGGAGUGAUGUUCCUUAAACUGCGAAAGCAGACAGAAGGGAGUUGGUACU [FmnBS 29 C9+G77] have recorded apparent KD of K4 kissing-loop reporter that is 0.2 µM or more?
Response line: criterion met

Prompt line: Does CCAUUCAUUUACGAUACCAGUCUAAUAUAUUUAAUCAAAACCCUCGCCGAGUGAUGUUCGGACCCUUGGCAGCGUCUGCGAGAGG [oookmullin] have a reported apparent KD of K4 kissing-loop reporter of at least 0.2 µM?
Response line: criterion met

Prompt line: Is reported apparent KD of K4 kissing-loop reporter greater than or equal to 0.2 µM here: GUAUAUCGAGUGAUGUUCGAAUGCUCCGAAGGAGCGCGGAUAAUCGCAGGUAGGUCGCGGAGCAGUUGCUGAGGAAGCUCAGUAU [Arg A SS t11]
Response line: criterion not met

---

tested on: MS2 coat protein; assay: apparent KD of MS2 coat protein; designed switch direction (-1 OFF switch, 1 ON switch): 1; higher = weaker reporter binding; settings: Eterna round: R95; input ligand: microRNA oligo, concentration not stated
# binarize apparent KD of MS2 coat protein: threshold 30 nM inclusive, high side criterion met, low side criterion not met

Prompt line: Reported apparent KD of MS2 coat protein at or above 30 nM? CAGUGCUGUCGAGAGGAUAUGCGGUGAUGGACAUGAGGAUCACCCAUGUUAGCGACAGCGUUACGGCAGAAGGCUCUACCCACUG [Soteed Omei mod 47] (puzzle: Same State 2)
Response line: criterion not met

Prompt line: Item UUCCUACAUGAGGAUCACCCAUGUGACGCCUCGAUAGGAUAUGCGUGUGCCUUGGCGCAUGCAGAAGGAUUGUAGC [JL Aveso mod 8] (puzzle: Same State 1) with apparent KD of MS2 coat protein of 30 nM or above?
Response line: criterion not met

Prompt line: Answer whether apparent KD of MS2 coat protein of GUAGAUAUAGAGGAGGAUAUUCAAUGAGGAACAUGAGGAUCACCCAUGUAAGAGAGAGAUGAUGAGAAGAAGGCUUAGAGGGAUG [Altered State 2-3 - Jieux - Same State 2] (puzzle: Same State 2) is greater than or equal to 30 nM.
Response line: criterion met

Prompt line: State whether the measured apparent KD of MS2 coat protein reaches 30 nM, counting equality as reaching it, for UGAGCCGGCACUGAGGAUAUUCAUAUUUAAACAUGAGGAUCACCCAUGUAGGCCAGAAGGCCUUGGGAGAAGGCAGGUCGGCUCC [salish99_ss2_r3_079] (puzzle: Same State 2)
Response line: criterion met

Prompt line: Determine whether measured apparent KD of MS2 coat protein meets or exceeds 30 nM for GGCAAUCGCAUUCGAUUGCCUGAGCAUGUACAUGAGGAUCACCCAUGUCAUGUACAGGCUUUUUGCUCGUACUUAUA (puzzle: Sensor for hsa-mir-208a)
Response line: criterion not met

---

system: MS2 coat protein; experiment: apparent KD of MS2 coat protein; designed switch direction (-1 OFF switch, 1 ON switch): 1; higher = weaker reporter binding; details: input ligand: microRNA oligo, concentration not stated
RECORDED ENDPOINT: apparent KD of MS2 coat protein

Prompt line: Looking for the measured apparent KD of MS2 coat protein of UUGAAGAAUUAAGGAUAUCGAGUCAAGAUGUUAAACAUGAGGAUCACCCAUGUGGGUUGCGGUAUCGAGAAGGUAAAUAACAAG [Mat - Same State NG 2 - JL mod - D53] (Eterna round: R96, puzzle: Same State NG 2) , can you help?
Response line: 23.6 nM

Prompt line: I am curious: what apparent KD of MS2 coat protein value has been reported for AGUCCAGCCUGAGCUGGACAAAAGCAUGUACAUGAGGAUCACCCAUGUUCAUGUACAAGCUUUUUGCUCGUCUUGCC [salish99_208a_r3_107x] (Eterna round: R96, puzzle: Sensor for hsa-mir-208a) ?
Response line: 15.5 nM

Prompt line: Any idea what apparent KD of MS2 coat protein was measured for UUUACUUUCAUAGGAUAUCAUGCGAAAAUUGCGUGAGAAGGGUGCACACUGUCUUUCUAGGAGUACAUGAGGAUCACCCAUGUG [SameState NG1 #66] (Eterna round: R96, puzzle: Same State NG 1) ?
Response line: 48.3 nM

Prompt line: Which apparent KD of MS2 coat protein value belongs to UUACUCAUGUAAGGAUAUGCAGCCGAAACGGCUGCAGAAGGUACUAUAAUACAUGAGGAUCACCCAUGUCAAAAUAAUUAAAAC [Mat - Same State NG 1 - JL mod - D72] (Eterna round: R96, puzzle: Same State NG 1) ?
Response line: 26 nM

Prompt line: Need apparent KD of MS2 coat protein of GUAGCAUACCGAGGAUAUUCAUAUAAUAAAUACAUGAGGAUCACCCAUGUAAGGCGAAAGCCUUGGGAGAAGGCGGAAUGCUAC [Xeonanis - 20 Mod59] (Eterna round: R96, puzzle: Same State NG 2) , thanks.
Response line: 31.9 nM

Prompt line: // lookup apparent KD of MS2 coat protein for GCGGAACAGGCCGACAUGAGGAUCACCCAUGUGGCCUCAUGUCAGGAUAUCGGGAAGAAGAAAACCGAGAAGGGACGGUGACGC [AK SSNG3-V2-33.2] (Eterna round: R96, puzzle: Same State NG 3)
Response line: 9.43 nM

Prompt line: Quick one: apparent KD of MS2 coat protein of GGAAGGAGGUCAGGAUAUGAACGGAAGGUACAUGAGGAUCACCCAUGUUACGGAGGAAACCCACGUUAGAAGGGACAAGGAAGG [AK SSNG2-V2-4] (Eterna round: R96, puzzle: Same State NG 2) ?
Response line: 15.6 nM

Prompt line: What does the data say about its apparent KD of MS2 coat protein? Entry: UUCUCAUUUACAUGAGGAUCACCCAUGUUUUUUUGUCAGAAAUAGGAUAUAGGUCUCUCGUUUUACUAGAAGGAUUUCUUUAUU [JR_SSNG3_Sub088] (Eterna round: R96, puzzle: Same State NG 3)
Response line: 134 nM

Prompt line: // apparent KD of MS2 coat protein lookup, key: AAUUAAUUAAUACAUGAGGAUCACCCAUGUAAUUAUUAGAUCAAGGAUAUCAGCUCGAAUAGAGCUGAGAAGGUGAUCACAUGU [SSNG3/18-A1] (Eterna round: R96, puzzle: Same State NG 3)
Response line: 259 nM

Prompt line: So what does the record say about apparent KD of MS2 coat protein for ACAUUUAGCUCUUGCACAUGAGGAUCACCCAUGUUCAGUUCACAGGAUAUCUAGUCAAACGGAUCGGAGAAGGGUGGCAGGAGC [Erquzaa] (Eterna round: R96, puzzle: Same State NG 3) ?
Response line: 185 nM

Prompt line: Record request: apparent KD of MS2 coat protein value, item AUUGCUAGCGCAGGAUAUGAUGCGAAAAUUGCGUCAGAAGGGUGUAAUCUCUCAUUGCGGGAGGACAUGAGGAUCACCCAUGUC [SameState NG1 #84] (Eterna round: R96, puzzle: Same State NG 1)
Response line: 123 nM

Prompt line: Suppose we examine the sequence GAGUGGCAGUUAGGAUAUACAGUGAUAAUGAUAGUAGAAGGAACUGACAUGAGGAUCACCCAUGUAGGACUAAUCCAGAGAGAG [Parity 32 - Jieux - Same State NG 1] (Eterna round: R96, puzzle: Same State NG 1) ; what apparent KD of MS2 coat protein value has been reported?
Response line: 21.2 nM

Prompt line: Request the reported apparent KD of MS2 coat protein associated with AGAUCAUGACGAGGAUAUGGUACAUGAGGAUCACCCAUGUAUGUACCAUAACGCGUACGACGAAACCAGAAGGCGUCGUGAUCA [Mat - Same State NG 2 - JL mod - D41] (Eterna round: R96, puzzle: Same State NG 2)
Response line: 12.2 nM

Prompt line: Which apparent KD of MS2 coat protein is listed for GGUGCGAAUAAAGCCUACAUGAGGAUCACCCAUGUAUGUAGGCAGGAUAUCGUUUGCAAAGCAAACGAGAAGGGCUGACGCACC [Mat - Same State NG 3 - JL Mod - D49] (Eterna round: R96, puzzle: Same State NG 3) ?
Response line: 45.7 nM

Prompt line: Field request: apparent KD of MS2 coat protein | item: GCAACGUGAUUAGGAUAUGCGAAACCCAUGGAAACUACACAUGAGGAUCACCCAUGUCCAUAGCCGCAGAAGGGAUCCGGAGCA [Eternabot solution 6] (Eterna round: R96, puzzle: Same State NG 2)
Response line: 90.3 nM

Prompt line: Give the measured apparent KD of MS2 coat protein of GCUAGAAAUAAAGCCAACAUGAGGAUCACCCAUGUAUGUUGGUAGGAUAUCGUAUGCAAAGCAUACGAGAAGGGCUAAUCUAGC [Mat - Same State NG 3 - JL Mod - D66] (Eterna round: R96, puzzle: Same State NG 3) .
Response line: 57.4 nM

Prompt line: I'd like to know its apparent KD of MS2 coat protein. The sequence in question is GUGCUCGUGUGAGGAUAUGUUGCCGGGUCGGCUGCAGAAGGUACUAUUAUACAUGAGGAUCACCCAUGUCGCUUUUCUCCGGUA [salish99_SSNG1_r04_921] (Eterna round: R96, puzzle: Same State NG 1)
Response line: 49.6 nM
